All figures here come from DBAASP.

- Test system: Salmonella typhimurium KCTC 1926
recorded.endpoint: MIC (µM)
Quick reminder: number only, in µM, skip the unit.

Example entries and their recorded answers appear below.
compound	scale.unit	MIC
CC[C@H](C)[C@H](N)C(=O)N[C@@H](CC(C)C)C(=O)N1CCC[C@H]1C(=O)N[C@@H](Cc1c[nH]c2ccccc12)C(=O)N[C@@H](CCCCN)C(=O)N[C@@H](CCCCN)C(=O)N1CCC[C@H]1C(=O)N[C@@H](CCCCN)C(=O)N[C@@H](CCCCN)C(=O)N1CCC[C@H]1C(=O)N[C@@H](Cc1c[nH]c2ccccc12)C(=O)N[C@@H](CCCN=C(N)N)C(=O)N[C@@H](CCCN=C(N)N)C(N)=O [ILPWKKPKKPWRR]	µM	5.77
NCCCC[C@H](NC(=O)[C@H](Cc1c[nH]c2ccccc12)NC(=O)[C@H](CCCCN)NC(=O)[C@H](Cc1c[nH]c2ccccc12)NC(=O)[C@H](CCCCN)NC(=O)[C@@H](N)Cc1c[nH]c2ccccc12)C(=O)O [WKWKWK]	µM	16
CCC(C)C(NC(=O)C(CCCCN)NC(=O)C(CCCCN)NC(=O)C(CC(C)C)NC(=O)C(CCCCN)NC(=O)C(CCC(=O)O)NC(=O)CN)C(=O)NCC(=O)NC(CCC(N)=O)C(=O)NC(CCCCN)C(=O)NC(C(=O)NC(CCCCN)C(=O)NC(CC(N)=O)C(=O)NC(Cc1ccccc1)C(=O)NC(Cc1ccccc1)C(=O)NC(CCC(N)=O)C(=O)NC(CCCCN)C(=O)NC(CC(C)C)C(=O)O)C(C)CC (stereo not drawn) [GEKLKKIGQKIKNFFQKL]	µM	12.5
CC[C@H](C)[C@H](NC(=O)[C@H](CCCN=C(N)N)NC(=O)[C@H](CC(C)C)NC(=O)[C@H](CC(C)C)NC(=O)[C@@H](N)CCCN=C(N)N)C(=O)N[C@H](C(=O)N[C@H](C(=O)N[C@H](C(=O)N[C@@H](CCCN=C(N)N)C(=O)N[C@H](C(=O)N[C@@H](CC(C)C)C(=O)N[C@@H](CCCN=C(N)N)C(N)=O)C(C)C)[C@@H](C)CC)C(C)C)C(C)C [RLLRIVVIRVLR]	µM	4.15
CC(C)C[C@H](NC(=O)[C@H](Cc1ccccc1)NC(=O)[C@H](CCCCN)NC(=O)[C@@H]1CCCN1C(=O)[C@H](CCCCN)NC(=O)[C@H](CCCCN)NC(=O)[C@H](CCCCN)NC(=O)[C@H](CCCCN)NC(=O)[C@H](CCCCN)NC(=O)[C@H](CCCCN)NC(=O)[C@H](Cc1c[nH]c2ccccc12)NC(=O)[C@@H](N)CCCCN)C(N)=O [KWKKKKKKPKFL]	µM	2.21
CC[C@H](C)[C@H](NC(=O)[C@H](Cc1c[nH]c2ccccc12)NC(=O)[C@H](CC(C)C)NC(=O)[C@@H](N)CC(C)C)C(=O)N[C@@H](C)C(=O)N[C@@H](CC(C)C)C(=O)N[C@@H](CCCN=C(N)N)C(=O)N[C@@H](CCCCN)C(=O)N[C@@H](CCCCN)C(N)=O [LLWIALRKK]	µM	3.51

State recorded MIC with Salmonella typhimurium KCTC 1926, entry CC[C@H](C)[C@H](NC(=O)[C@@H]1CCCN1C(=O)[C@H](CCCCN)NC(=O)[C@H](Cc1ccccc1)NC(=O)[C@H](CC(C)C)NC(=O)[C@H](Cc1cnc[nH]1)NC(=O)[C@H](CC(C)C)NC(=O)[C@H](C)NC(=O)[C@H](CCCCN)NC(=O)[C@H](CCCCN)NC(=O)[C@@H](N)Cc1ccccc1)C(=O)N[C@@H](CCCCN)C(=O)N[C@@H](CCCCN)C(=O)N[C@@H](Cc1ccccc1)C(=O)N[C@@H](CC(C)C)C(=O)N[C@@H](CCCCN)C(=O)N[C@@H](Cc1c[nH]c2ccccc12)C(=O)N[C@@H](CCCCN)C(N)=O [FKKALHLFKPIKKFLKWK] , no comment.
3.13

State, for Salmonella typhimurium KCTC 1926, measured MIC of the compound listed here: C[C@@H](O)[C@H](NC(=O)[C@H](CCCCN)NC(=O)[C@H](Cc1c[nH]c2ccccc12)NC(=O)[C@H](Cc1c[nH]c2ccccc12)NC(=O)[C@@H](NC(=O)[C@H](CCCCN)NC(=O)[C@@H](N)CCCCN)[C@@H](C)O)C(=O)N[C@@H](Cc1c[nH]c2ccccc12)C(=O)N[C@@H](Cc1c[nH]c2ccccc12)C(=O)N[C@H](C(=O)N[C@@H](CCCCN)C(=O)N[C@@H](Cc1c[nH]c2ccccc12)C(=O)N[C@@H](CCCCN)C(=O)N[C@@H](CCCCN)C(=O)O)[C@@H](C)O [KKTWWKTWWTKWKK]
2
